Target: human dopamine transporter (Homo sapiens)
Construct: expressed in transfected cells
Sequence (Q01959 whole entry): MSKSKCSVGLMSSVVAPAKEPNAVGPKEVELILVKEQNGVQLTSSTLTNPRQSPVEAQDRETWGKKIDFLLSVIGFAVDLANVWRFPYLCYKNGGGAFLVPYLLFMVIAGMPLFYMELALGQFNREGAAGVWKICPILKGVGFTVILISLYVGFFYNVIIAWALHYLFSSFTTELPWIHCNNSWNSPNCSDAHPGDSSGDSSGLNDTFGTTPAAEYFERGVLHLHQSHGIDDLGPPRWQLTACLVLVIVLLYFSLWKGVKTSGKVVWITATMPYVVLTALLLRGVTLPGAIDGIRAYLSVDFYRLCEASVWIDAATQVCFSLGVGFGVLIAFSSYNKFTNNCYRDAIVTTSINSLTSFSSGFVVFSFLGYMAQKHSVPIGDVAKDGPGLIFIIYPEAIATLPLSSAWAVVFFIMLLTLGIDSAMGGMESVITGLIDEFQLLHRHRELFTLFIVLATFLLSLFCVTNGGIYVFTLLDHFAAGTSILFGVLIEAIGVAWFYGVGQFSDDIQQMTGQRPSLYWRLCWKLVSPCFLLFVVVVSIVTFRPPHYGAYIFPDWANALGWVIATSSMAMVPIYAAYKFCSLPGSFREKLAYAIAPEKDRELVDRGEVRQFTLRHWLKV
Assay: Inhibitory action on human dopamine transporter ([3H]-dopamine uptake in CHO cells)
Assay type: cell-based
Settings: CHO, compound 1 μM; relative to inhibitory activity of 100 μM Nomifensine as 100%; read-out: inhibitory rate (%)
Description: SRα promoter contained in pTB1411 described in JP-A-H5-076385 was cleaved with restriction enzyme […](manufactured by TAKARA BIO INC.), blunt-ended, further cleaved with restriction enzyme EcoRI (manufactured by TAKARA BIO INC.), and fragmented. […] The inhibitory activity of each compound (10 μM) was calculated as a relative activity value based on the inhibitory activity of 100 μM Nomifensine (dopamine transporter inhibitor) as 100%. […]
Where a name gives a salt, the structure may show the parent alone.
property: inhibition at 1 µM (%)

{"compound": "O=C(NC[C@@H]1CNCCO[C@H]1c1ccc(Cl)c(Cl)c1)c1ccccc1 [Example 126, monohydrochloride]", "inhibition at 1 µM / %": 27}
{"compound": "O=c1[nH]nc(-c2cccn(C[C@@H]3CNCCO[C@H]3c3ccc(Cl)c(F)c3)c2=O)o1 [Example 550, monohydrochloride]", "inhibition at 1 µM / %": 46}
{"compound": "O=C1NCCCN1C[C@@H]1CNCCO[C@H]1c1ccc(Cl)c(F)c1 [Example 372, monohydrochloride]", "inhibition at 1 µM / %": 97}

1: Cc1ccc(C2OCCNCC2CO)cc1Cl (stereo not shown)
2: Cc1cc(C(=O)O)nn1C[C@@H]1CNCCO[C@H]1c1ccc(Cl)c(Cl)c1 [Example 187, monohydrochloride]
3: CS(=O)(=O)C[C@H]1CNCCO[C@@H]1c1ccc(Cl)c(Cl)c1 [Example 93, monohydrochloride]
Lookup: Order field: inhibition at 1 µM | Direction: descending (largest first) List each label, following the requested order.
Found: 3, 2, 1
(3: 96%, 2: 53%, 1: 12%)
